experiment: reversal of MRP1-mediated doxorubicin resistance, pilot screen, H69AR cells, doxorubicin co-treatment (AID 601)
setup_conditions: H69AR cells + 2 uM doxorubicin, CellTiter-Glo, 72 h; at 10 µM; stronger effect = higher value
observation_type: differential viability (reversal) (%)
Reply numerically in %, unit not repeated.

Problem: Given the entry CCCC1CCC(C(=O)Nn2cnc3ccccc3c2=O)CC1 (stereo not given) , report its measured differential viability (reversal).
Result: 9.62

###

target_entity: Receptor tyrosine-protein kinase erbB-2 (Homo sapiens) (UniProt P04626)
Sequence (P04626 whole entry, looked up): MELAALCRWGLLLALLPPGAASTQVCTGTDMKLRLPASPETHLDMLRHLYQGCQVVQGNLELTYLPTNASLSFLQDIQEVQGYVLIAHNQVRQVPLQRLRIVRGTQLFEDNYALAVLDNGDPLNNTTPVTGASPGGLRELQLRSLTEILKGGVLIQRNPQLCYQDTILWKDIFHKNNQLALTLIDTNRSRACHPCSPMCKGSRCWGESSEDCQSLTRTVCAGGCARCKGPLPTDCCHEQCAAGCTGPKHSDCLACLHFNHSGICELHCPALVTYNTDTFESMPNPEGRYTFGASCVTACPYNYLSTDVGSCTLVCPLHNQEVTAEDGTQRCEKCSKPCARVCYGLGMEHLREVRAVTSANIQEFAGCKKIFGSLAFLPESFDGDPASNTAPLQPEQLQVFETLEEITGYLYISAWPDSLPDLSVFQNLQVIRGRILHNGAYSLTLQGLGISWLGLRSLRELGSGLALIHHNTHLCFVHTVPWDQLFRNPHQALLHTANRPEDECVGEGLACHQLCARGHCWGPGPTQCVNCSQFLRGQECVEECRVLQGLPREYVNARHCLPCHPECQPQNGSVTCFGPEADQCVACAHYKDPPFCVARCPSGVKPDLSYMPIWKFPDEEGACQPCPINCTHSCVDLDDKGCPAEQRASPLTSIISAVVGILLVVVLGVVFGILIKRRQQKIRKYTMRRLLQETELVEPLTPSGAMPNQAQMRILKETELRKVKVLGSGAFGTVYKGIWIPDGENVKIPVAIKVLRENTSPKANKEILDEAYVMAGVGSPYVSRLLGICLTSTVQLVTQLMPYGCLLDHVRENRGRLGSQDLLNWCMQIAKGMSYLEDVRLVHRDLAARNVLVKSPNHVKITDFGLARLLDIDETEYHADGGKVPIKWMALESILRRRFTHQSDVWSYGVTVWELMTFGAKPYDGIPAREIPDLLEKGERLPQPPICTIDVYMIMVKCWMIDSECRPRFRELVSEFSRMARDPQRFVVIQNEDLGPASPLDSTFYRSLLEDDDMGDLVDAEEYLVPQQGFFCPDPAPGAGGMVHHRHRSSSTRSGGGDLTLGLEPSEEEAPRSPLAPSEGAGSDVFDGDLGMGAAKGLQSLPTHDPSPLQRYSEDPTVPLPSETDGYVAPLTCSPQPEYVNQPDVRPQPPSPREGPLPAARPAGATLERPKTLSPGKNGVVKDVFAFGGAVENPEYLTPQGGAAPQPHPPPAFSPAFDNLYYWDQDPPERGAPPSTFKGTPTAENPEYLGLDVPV
experiment: reducers of endogenous Her2 protein level, primary screen, SKBR3 breast tumor cells, AlphaScreen, ATP viability (AID 461);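 also: lower value means less Her2 protein in the cells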
setup_conditions: 18-24 h, at 10 µM, stronger effect = lower value
Activity calls are given as the source filed them.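 Rule for the calls: active = Her2 level under about 52% in both replicate screens, with viability over 70% of control (limit read from the data); inconclusive = Her2 under the limit in one screen only, or viability under 70%; inactive = Her2 level above the set limit.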
observation_type: Her2 level

Study these solved cases before continuing.
1) CC(C)Cc1nc(N2CCN(C(=O)c3ccco3)CC2)c(C#N)c2c1CCC2
93% (inactive)
2) NC(=O)CSCc1ccc(Br)cc1
91.5% (inactive)

Please find the next compound below.
Problem: Given the entry COCc1nnc(NS(=O)(=O)c2ccc(Br)cc2)s1 , report its measured Her2 level.
Result: 92% (inactive)

###

experiment: reversal of MRP1-mediated doxorubicin resistance, pilot screen, H69AR cells, doxorubicin co-treatment (AID 601)
setup_conditions: H69AR cells, CellTiter-Glo, 72 h; compound alone cytotoxicity; at 10 µM
We begin with a simple list: items and their reported viability.

Study these solved cases before continuing.
1. CCOc1ccccc1N1CCN(S(=O)(=O)c2cccc3nsnc23)CC1
86.1%
2. Cc1nc(SCC(=O)CC(=O)OC(C)C)c(C#N)c(C)c1C
95%
3. CC(=O)OCC(=O)[C@H]1CC[C@H]2[C@@H]3CC=C4C[C@@H](O)CC[C@]4(C)[C@H]3CC[C@]12C
96.8%

Problem: Given the entry CCOC(=O)c1oc2cc(OCC(N)=O)ccc2c(=O)c1-c1ccc(OC)c(OC)c1 , report its measured viability.
Result: 99%

Problem: Given the entry NC(N)=NC(N)=NCCc1ccccc1 , report its measured viability.
Result: 99.4%

Problem: Given the entry Cc1c(N(C)C)nc2ccccc2c1N , report its measured viability.
Result: 84.4%

Problem: Given the entry COc1ccccc1C(=O)NC(C)C(c1cccs1)N1CCN(C)CC1 (stereo unspecified) , report its measured viability.
Result: 91.1%

Problem: Given the entry COC(=O)Cc1[nH]nc2c1C(C1C=CCCC1)C(C#N)=C(N)O2 (stereo unspecified) , report its measured viability.
Result: 95.8%

Problem: Given the entry Cc1ccc(OCC2Cn3c(nc4c3c(=O)n(C)c(=O)n4C)O2)cc1 (stereo unspecified) , report its measured viability.
Result: 93%

###

experiment: SK-BR-3 cell growth inhibitors, pilot screen, 24 h, human (AID 572);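 also: compound exposure lasted between 18 and 24 h rather than exactly 24 h; 100% = carrier-treated control wells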
setup_conditions: SK-BR-3 viability, CellTiter-Glo luminescence, at 10 µM, stronger effect = lower value
// NB: equality with 90% counts as 0 (no); only viability strictly below is 1 (yes)

Solved entries (count: 7):
1) O=C(CSc1nnc(-c2ccc(Br)cc2)n1C1CCCCC1)N1CCCC1
1 (yes)
2) Cc1cc(C)n(C(C)n2nc(C)cc2C)n1
0 (no)
3) CCOCC(O)CS(=O)Cc1ccccc1 (stereo not given)
0 (no)
4) CCCCn1c(SCc2ccc(Cl)cc2)nc2c1c(=O)[nH]c(=O)n2C
1 (yes)
5) CCOC(=O)c1c(NC(=O)OC)sc2c1CCC2
0 (no)
6) CCOC(=O)c1ccc(COC(=O)c2cc3ccccc3oc2=O)o1
0 (no)
7) Cc1ccc2c(C)nc(NC3=NCN(C(C)C)CN3)nc2c1
0 (no)

Attention now turns to another entry.
Problem: # check: viability < 90% for Cc1cccc(-n2nnnc2SCc2csc(-c3ccccc3)n2)c1
Result: 0 (no)

###

experiment: 384-well plate pilot, post-Golgi transport modulator project, inhibition of yeast transport mutant growth (AID 636)
setup_conditions: absorbance 615 nm, about 18 h, stronger effect = higher value
observation_type: inhibition (%)
Reply numerically in %, unit not repeated.

Problem: Given the entry COC(=O)c1[nH]c2ccccc2c1NS(=O)(=O)c1ccc(OC)cc1OC , report its measured inhibition.
Result: -5.26

Problem: Given the entry CCCCn1c(SCc2cccnc2)nc2c1c(=O)n(C)c(=O)n2C , report its measured inhibition.
Result: -7.76

Problem: Given the entry O=C(c1ccco1)N1CCN(CCCCN2C(=O)c3ccccc3C2=O)CC1 , report its measured inhibition.
Result: -1.04

###

We begin with a simple list: items and their reported viability.
experiment: reversal of MRP1-mediated doxorubicin resistance, pilot screen, H69AR cells, doxorubicin co-treatment (AID 601)
setup_conditions: H69AR cells + 2 uM doxorubicin, CellTiter-Glo, 72 h; measured here: viability with 2 uM doxorubicin; at 10 µM; stronger effect = lower value
Reply numerically in %, unit not repeated.

Study these solved cases before continuing.
1. CCc1ccc2oc(-c3cc(N)ccc3Cl)nc2c1
89.4
2. O=C(c1ccc2c(c1)OCO2)N1CCNc2ccccc2C1
87.7

Problem: Given the entry Cc1c(NC(=O)C(C)Oc2ncnc3ccccc23)c(=O)n(-c2ccccc2)n1C (stereo not drawn) , report its measured viability.
Result: 90

###

We begin with a simple list: items and their reported viability.
experiment: reversal of MRP1-mediated doxorubicin resistance, pilot screen, H69AR cells, doxorubicin co-treatment (AID 601)
setup_conditions: H69AR cells + 2 uM doxorubicin, CellTiter-Glo, 72 h; measured here: viability with 2 uM doxorubicin; at 10 µM; stronger effect = lower value
Reply numerically in %, unit not repeated.

Study these solved cases before continuing.
1) COc1nc(C)ccc1-c1noc(-c2ccncc2)n1
83.6
2) CCOC(=O)c1cc(-c2ccc3c(c2)OCO3)nc2onc(C)c12
70.9
3) O=C(CSc1n[nH]c(=O)[nH]c1=O)c1ccccc1
97
4) C=CCn1c(COc2ccc(Cl)cc2)nnc1SCC(=O)N1CC(=O)Nc2ccccc21
73.5
5) CCCCOc1ccc(C(=O)Nc2ccc(N3CCN(C(=O)C(C)C)CC3)cc2)cc1
81.7

Problem: Given the entry CC(=O)c1ccccc1OCCn1nnc(-c2ccc(C)cc2)n1 , report its measured viability.
Result: 74.6

Problem: Given the entry O=C(NCc1cccs1)C1CC(=O)N(C2CCCC2)C1 (centres undefined) , report its measured viability.
Result: 87.3

Problem: Given the entry COc1ccccc1N1CCN(C(=O)c2ccc3nc(-c4ccco4)c(-c4ccco4)nc3c2)CC1 , report its measured viability.
Result: 77.6

Problem: Given the entry COc1ccc(N2CCN(C(=O)CCNS(=O)(=O)c3ccc(Br)s3)CC2)cc1 , report its measured viability.
Result: 92.3

###

We begin with a simple list: items and their reported viability.
experiment: reversal of MRP1-mediated doxorubicin resistance, pilot screen, H69AR cells, doxorubicin co-treatment (AID 601)
setup_conditions: H69AR cells, CellTiter-Glo, 72 h; compound alone cytotoxicity; at 10 µM
I'd appreciate it if you included the unit after the number.

Study these solved cases before continuing.
1. COc1ccc(NC(=O)N2CCC(c3nc(-c4cccs4)no3)CC2)cc1
95.6%
2. COc1cccc(C(=O)Nc2cnc(NC(=O)c3ccco3)cc2C)c1
86.6%
3. COC(=O)c1ccc(COc2ccc(C3C4=C(CCCC4=O)Nc4onc(C)c43)cc2)cc1 (configuration not stated)
94.7%

Problem: Given the entry CCOc1ccc2nc(NC(=O)CSc3nc4ccccc4c(=O)n3Cc3ccco3)sc2c1 , report its measured viability.
Result: 45.2%

Problem: Given the entry COc1ccccc1N1CCN(C(CNS(=O)(=O)c2cc(F)ccc2F)c2cccnc2)CC1 (configuration not stated) , report its measured viability.
Result: 92.8%

Problem: Given the entry O=C(CSc1nnc(-c2ccco2)n1-c1ccccc1)N1CCN(C(=O)c2ccco2)CC1 , report its measured viability.
Result: 84.4%

Problem: Given the entry COc1ccc(OC)c(S(=O)(=O)N2CCC(C(=O)NCc3ccccc3OC)CC2)c1 , report its measured viability.
Result: 103%

Problem: Given the entry CC(=O)O[C@]1(C(C)=O)CC[C@H]2[C@@H]3C[C@H](C)C4=CC(=O)CC[C@]4(C)[C@H]3CC[C@@]21C , report its measured viability.
Result: 1.8%

###

experiment: reversal of MRP1-mediated doxorubicin resistance, pilot screen, H69AR cells, doxorubicin co-treatment (AID 601)
setup_conditions: H69AR cells, CellTiter-Glo, 72 h; compound alone cytotoxicity; at 10 µM
observation_type: viability (%)
Reply numerically in %, unit not repeated.

Study these solved cases before continuing.
1. CC1(C)CC(=O)C=C(NC2CCS(=O)(=O)C2)C1 (stereo not drawn)
91.3
2. CCc1ccc(Nc2cc(=O)n(C3CCCCC3)c(=O)[nH]2)cc1
18.3
3. CCOC(=O)N1CCN(C(=O)CN(C)S(=O)(=O)c2ccc(OC)c(OC)c2)CC1
91.5
4. Cc1ccc(NC(=O)CSC2=C(C#N)C(c3ccc4c(c3)OCO4)CC(=O)N2)cc1C (stereo not drawn)
88.6
5. C=CCSc1nnc(-c2ccc(Cl)cc2Cl)o1
87.9

Problem: Given the entry CC(C)(C)NC(=O)CN(Cc1cccs1)C(=O)c1csnn1 , report its measured viability.
Result: 105

Problem: Given the entry COc1ccc(-c2noc(COc3ccc(C)c(C)c3)n2)cc1OC , report its measured viability.
Result: 94.1

Problem: Given the entry N#CCc1nc(CSc2nc3ccccc3s2)cs1 , report its measured viability.
Result: 91.3

Problem: Given the entry COc1ccc(-c2nc(CS(=O)CC(=O)N3CCCC3)c(C)o2)cc1 (stereo not drawn) , report its measured viability.
Result: 83.9

Problem: Given the entry O=C(CP(=O)(c1ccccc1)c1ccccc1)N1CCCCC1 , report its measured viability.
Result: 106

Where do these numbers come from? They come from PubChem BioAssay.
